# Tested on: LDH enzyme
# PROCEDURE_DETAILS: In vitro LDH assay
# Format: biochemical
List of LDH Inhibition Ratio (0.1 mM) values.
The reply should contain only the number, in %.

Look over these answered cases.
C/C=C/c1ccc(OC(=O)CCCN2CCN(C(=O)/C=C/c3cc(OC)c(OC)c(OC)c3)CC2)c(OC)c1	37.6
CC(C)(C)C(O)/C=C/c1ccc2c(c1)OCO2 (centres unmarked) [STP, Stiripentol, reference compound]	46.1
COc1cc(/C=C/C(=O)N2CCN(CCCC(=O)N3CCN(c4ccc(C(F)(F)F)cc4)CC3)CC2)cc(OC)c1OC	42.6
COc1cc(/C=C/C(=O)N2CCN(C(=O)CCC(=O)N3CCN(c4cccc(Cl)c4Cl)CC3)CC2)cc(OC)c1OC	44.3

Switching to the query record.
So what's the measured LDH Inhibition Ratio (0.1 mM) for this one? "COc1cc(/C=C/C(=O)N2CCN(CCCC(=O)N3CCN(c4cccc(Cl)c4Cl)CC3)CC2)cc(OC)c1OC"
41.9

Data provenance: paper PMC12472621
